B1: ADAMTS4 (parent)
chain: SFRKFRYGYNNVVTIPAGATHILV

Variants of: B1
ASSAY_PROCEDURE: protein stability index of a GFP-peptide fusion (GPS, HEK-293T) (PSI 1-6); higher = more stable;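 note: lentivirally expressed fusions sorted by FACS into six bins by GFP to DsRed ratio, PSI derived from sequencing read proportions per bin multiplied by bin number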
RUN_CONDITIONS: c terminus: a fixed tail appended
Listed variants paired with reported protein stability index
No unit in the answer, please; the number alone is enough.

Examples with answers:
• L23W = 2.15
• F5Q = 1.92
• N10F = 2.9

Input: I am curious: what protein stability index value has been reported for P16L ?
Output: 1.81

Input: Also, N10Y please.
Output: 2.02

Input: Now consider L23T and answer again.
Output: 3.08

Input: V12E , same question.
Output: 2.4

# credit: the supplement of paper PMC10567573
